For each of the compounds below, state its IC50.
Target: Human Leukocyte Elastase (HLE) (Homo sapiens)
Sequence (P08246 30-247 limits assumed): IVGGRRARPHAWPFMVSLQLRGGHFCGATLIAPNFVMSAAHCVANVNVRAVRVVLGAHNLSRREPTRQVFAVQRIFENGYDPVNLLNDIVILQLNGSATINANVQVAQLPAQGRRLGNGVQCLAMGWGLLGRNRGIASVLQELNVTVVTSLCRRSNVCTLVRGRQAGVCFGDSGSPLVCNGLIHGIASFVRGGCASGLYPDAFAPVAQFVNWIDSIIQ
Give just the numeric value; nM need not be written.

Query: Provide IC50, system Human Leukocyte Elastase (HLE) (Homo sapiens), entry `CC(C)(C)C(=O)Oc1ccc(C(=O)c2ccc(OC(=O)C(C)(C)C)cc2OC(=O)C(C)(C)C)cc1`
Response: 55

Query: Provide IC50, system Human Leukocyte Elastase (HLE) (Homo sapiens), entry `CC(C)C(=O)Oc1ccc(C(=O)c2ccccc2)cc1`
Response: 250

Query: Report value only: IC50, Human Leukocyte Elastase (HLE) (Homo sapiens), `CC(C)(C)C(=O)Oc1ccc(Oc2ccc(OC(=O)C(C)(C)C)cc2)cc1`
Response: 460

---

The next entries give measured pIC50 for Human Leukocyte Elastase (HLE) (Homo sapiens, UniProt P08246).
Kindly note that pIC50 refers to -log10 of the concentration in mol/L and answer with the value alone.

Query: Please report pIC50 for the following molecule: `CC(C)(C)C(=O)Oc1ccc(Cc2ccc(OC(=O)C(C)(C)C)cc2)cc1`
Response: 6.35

Query: // Input: `CC(C)C(=O)Oc1ccc(C(=O)c2ccc(OC(=O)C(C)C)cc2)cc1` . Output its pIC50 only.
Response: 6.82

Query: Give the measured pIC50 for `C=CCc1cc(C(=O)c2ccccc2)ccc1OC(=O)C(C)(C)C`
Response: 6.10
